The reader will find IC50 measurements below, all made with UniProt P03372.
Numeric answer only, unit nM assumed.

Query: What value of IC50 has been reported for the following compound? O=C1N(c2ccc(O)cc2)[C@@H](c2ccc(O)cc2)C1(c1ccccc1)c1ccccc1
Reply: 40

Query: Lookup COc1cc([C@H]2[C@H](c3ccc(O)cc3)C(=O)N2c2ccc(O)cc2)cc(OC)c1OC (relative stereo)
Reply: 18000

Query: Same thing, different compound: COc1cc([C@@H]2C(=O)N(c3ccc(O)cc3)[C@H]2c2ccc(O)cc2)cc(OC)c1OC (relative stereo)
Reply: 1470

Query: Ok, now O=C1[C@@H](c2ccc3ccccc3c2)[C@H](c2ccc(O)cc2)N1c1ccc(O)cc1 (relative stereo)
Reply: 150

----------
# UniProt:Q92731: IC50 values follow
Express it in nM; write the number only.

Query: Query IC50 on UniProt:Q92731 for O=C1[C@@H](Oc2ccccc2)[C@H](c2ccc(O)cc2)N1c1ccc(O)cc1 (relative stereo)
Reply: 1200

Query: Field entry: COc1cc([C@@H]2C(=O)N(c3ccc(O)cc3)[C@H]2c2ccc(O)cc2)cc(OC)c1OC (relative stereo)
Reply: 23000

Query: Can you check COc1ccc([C@H]2[C@H](C(O)c3ccc(O)cc3)C(=O)N2c2cc(OC)c(OC)c(OC)c2)cc1 (some centres undefined) next?
Reply: 15

Query: Another compound: O=C1[C@@H](c2ccc3ccccc3c2)[C@H](c2ccc(O)cc2)N1c1ccc(O)cc1 (relative stereo)
Reply: 1100

Query: For O=C1N(c2ccc(O)cc2)[C@@H](c2ccc(O)cc2)C1(c1ccccc1)c1ccccc1 then?
Reply: 19

Query: Try this compound too: O=C1[C@@H](c2ccccc2)[C@H](c2ccc(O)cc2)N1c1ccc(O)cc1 (relative stereo)
Reply: 980

----------
Reported pIC50 values follow for various compounds
Tested on: MCF7
Assay: cells
Details: Homo sapiens, MCF7, 72 h
pIC50: −log10 of the molar value.

Worked examples follow.
Query: What measured pIC50 goes with O=C1N(c2ccc(O)cc2)[C@@H](c2ccc(O)cc2)C1(c1ccccc1)c1ccccc1 ?
Reply: < 4.30

Query: Consider next the compound O=C1[C@@H](c2ccc3ccccc3c2)[C@H](c2ccc(O)cc2)N1c1ccc(O)cc1 (relative stereo) in the same way.
Reply: < 4.30

---
Query: Need pIC50 of COc1cc([C@@H]2C(=O)N(c3ccc(O)cc3)[C@H]2c2ccc(O)cc2)cc(OC)c1OC (relative stereo) , thanks.
Reply: < 4.30

Query: Param item: COc1ccc([C@H]2[C@H](C(O)c3ccc(OCCN4CCCC4)cc3)C(=O)N2c2cc(OC)c(OC)c(OC)c2)cc1 (some centres undefined)
Reply: 5.42

----------
Target protein (sequence): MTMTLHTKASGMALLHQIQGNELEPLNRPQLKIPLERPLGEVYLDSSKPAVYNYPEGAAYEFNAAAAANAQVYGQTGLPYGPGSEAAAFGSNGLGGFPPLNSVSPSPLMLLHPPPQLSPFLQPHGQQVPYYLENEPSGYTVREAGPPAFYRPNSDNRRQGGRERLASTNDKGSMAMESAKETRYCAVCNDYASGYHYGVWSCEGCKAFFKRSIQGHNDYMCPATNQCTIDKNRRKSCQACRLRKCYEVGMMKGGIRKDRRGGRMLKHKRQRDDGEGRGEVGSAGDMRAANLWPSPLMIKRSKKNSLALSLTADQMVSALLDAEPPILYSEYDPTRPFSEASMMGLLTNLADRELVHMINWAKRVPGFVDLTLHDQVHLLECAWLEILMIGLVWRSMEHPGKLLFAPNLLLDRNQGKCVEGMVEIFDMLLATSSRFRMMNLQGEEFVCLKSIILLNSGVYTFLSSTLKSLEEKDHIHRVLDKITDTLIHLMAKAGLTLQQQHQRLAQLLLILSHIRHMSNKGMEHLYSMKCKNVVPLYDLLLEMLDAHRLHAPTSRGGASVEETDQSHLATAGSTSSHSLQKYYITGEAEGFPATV
Could you please mark condition met for values of IC50 below 200 nM and condition not met for values at or above it?

Query: Lab note: IC50 threshold 200 nM. Does this molecule come in strictly under it? O=C1[C@@H](Oc2ccccc2)[C@H](c2ccc(O)cc2)N1c1ccc(O)cc1 (relative stereo)
Reply: condition met

Query: Cool, now O=C1[C@@H](c2ccc(O)cc2)[C@H](c2ccc(O)cc2)N1c1ccc(O)cc1 (relative stereo)
Reply: condition not met

Query: One more molecule: O=C1C[C@H](c2ccc(O)cc2)N1c1ccc(O)cc1
Reply: condition not met

Query: Here is the next molecule: COc1ccc([C@H]2[C@H](C(O)c3ccc(O)cc3)C(=O)N2c2cc(OC)c(OC)c(OC)c2)cc1 (stereo not given in full)
Reply: condition met

Others:
Query: State whether 200 nM exceeds IC50 recorded for O=C1[C@@H](c2ccccc2)[C@H](c2ccc(O)cc2)N1c1ccc(O)cc1 (relative stereo) .
Reply: condition not met

----------
# pIC50 values compiled below
Tested on: MCF7
Experiment: cells
Conditions: Homo sapiens, MCF7, 72 h
Kindly note that pIC50 refers to -log10 of the concentration in mol/L and answer with the value alone.

Worked cases, pIC50 given:
Query: Recorded pIC50 for COc1ccc([C@H]2[C@H](C(O)c3ccc(O)cc3)C(=O)N2c2cc(OC)c(OC)c(OC)c2)cc1 (some centres undefined) with MCF7, please?
Reply: 6.68

Query: Also COc1ccc([C@@H]2[C@@H](c3ccc(C(O)c4ccc(OCCN5CCCC5)cc4)cc3)C(=O)N2c2ccc(OC)cc2)cc1 (some centres undefined) ?
Reply: 5.33

Query: What about this compound? O=C1[C@@H](C(O)c2ccc(O)cc2)[C@H](c2ccc(O)cc2)N1c1ccc(O)cc1 (some centres undefined)
Reply: 4.31

Let's switch to this compound now.
Query: Record COc1ccc([C@H]2[C@H](C(O)c3ccc(O)cc3)C(=O)N2c2ccc(OC)cc2)cc1 (some centres undefined) : what is its pIC50 with MCF7?
Reply: 4.49

----------
Target: Estrogen receptor beta (Homo sapiens, UniProt Q92731)
Sequence (Q92731 whole entry): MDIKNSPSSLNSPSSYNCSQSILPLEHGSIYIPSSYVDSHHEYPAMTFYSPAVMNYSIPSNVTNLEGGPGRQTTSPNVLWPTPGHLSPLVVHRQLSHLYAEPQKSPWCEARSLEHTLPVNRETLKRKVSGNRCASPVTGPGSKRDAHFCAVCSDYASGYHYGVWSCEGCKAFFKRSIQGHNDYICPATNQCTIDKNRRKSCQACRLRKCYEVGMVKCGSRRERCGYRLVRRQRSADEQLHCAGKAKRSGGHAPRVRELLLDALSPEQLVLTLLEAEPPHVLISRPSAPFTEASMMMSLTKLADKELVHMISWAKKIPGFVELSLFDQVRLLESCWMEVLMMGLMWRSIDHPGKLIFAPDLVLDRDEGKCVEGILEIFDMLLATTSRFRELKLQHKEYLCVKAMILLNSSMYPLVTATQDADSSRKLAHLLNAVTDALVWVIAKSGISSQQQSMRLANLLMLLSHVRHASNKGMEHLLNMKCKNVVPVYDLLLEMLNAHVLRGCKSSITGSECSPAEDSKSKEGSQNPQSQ
Parameter Measured: pIC50
As a rule, pIC50 stands for the negative log10 of the concentration, concentration in M.

Use these answered entries as a reference point.
Query: State the recorded pIC50 for this entry: COc1cc([C@H]2[C@H](c3ccc(O)cc3)C(=O)N2c2ccc(O)cc2)cc(OC)c1OC (relative stereo)
Reply: 3.84

Query: Do the same for O=C1C[C@H](c2ccc(O)cc2)N1c1ccc(O)cc1 please
Reply: 4.25

--- query ---
Query: pIC50 lookup needed for O=C1[C@@H](c2ccc(O)cc2)[C@H](c2ccc(O)cc2)N1c1ccc(O)cc1 (relative stereo) , thanks.
Reply: 5.32
